Provenance of the data: patent US10611760B2

study target: hOX1R (Homo sapiens)
assay info: Intracellular calcium measurements using stable-replicating cells, Method B (CHO cells, FLIPR Tetra), OX1
Assay type: cell-based
reported conditions: orexin A at EC75, read-out: pIC50 OX1 (converted)
Counter-ions that a name gives are not always drawn.
measurement label: IC50 (nM)

Study these solved cases before continuing.
1. Cc1ccc(-n2nccn2)c(C(=O)N(C)[C@H](CNc2ccc(Cl)cn2)C(C)C)c1 :: 5.01
2. Cc1ccc(-n2nccn2)c(C(=O)N(C)[C@H](CNc2ncc(C(F)(F)F)cn2)C2CC2)n1 :: 2000
3. CC[C@@H](CNc1cnc2ccccc2n1)N(C)C(=O)c1nc(C)ccc1-n1nccn1 :: 2
4. CC[C@@H](CN(CCOC)c1ncc(C(F)(F)F)cn1)N(C)C(=O)c1nc(C)ccc1-n1nccn1 :: 12.6
5. CC[C@@H](CNc1ncc(C(F)(F)F)cn1)N(C)C(=O)c1nc(C)ccc1-n1cccn1 [Example 90, formic acid salt] :: 2

(I) CC[C@@H](CNc1ncc(C(F)(F)F)cn1)N(C)C(=O)c1nc(C)ccc1-n1nccn1
(II) CC[C@@H](CN(C)c1ncc(C(F)(F)F)cn1)N(C)C(=O)c1nc(C)ccc1-n1nccn1
(III) CC[C@@H](CNc1ncc(C(F)(F)F)cn1)N(C)C(=O)c1nccc2ccccc12
**Query** // ranking: key=IC50, reverse=True Please, when replying, give the labels in the order that was requested.
**Result** III, II, I
(III: 100 nM, II: 7.94 nM, I: 3.16 nM)

(A) CC[C@@H](CNc1cnc(C(F)(F)F)cn1)N(C)C(=O)c1nc(C)ccc1-n1nccn1
(B) CC[C@@H](CNc1ccc(Cl)cn1)N(C)C(=O)c1cc(OC)c(C)cc1-n1nccn1
(C) CC[C@@H](CNc1ccc2ccccc2n1)N(C)C(=O)c1nc(C)ccc1-n1nccn1
(D) CC[C@@H](CNc1ncc(C(F)(F)F)cn1)N(C)C(=O)c1cccc2cccnc12
**Query** // ranking: key=IC50, reverse=True Please, when replying, give the labels in the order that was requested.
**Result** D, B, A, C
(D: 79.4 nM, B: 3.98 nM, A: 2.51 nM, C: 1.26 nM)

(1) CC[C@@H](CNc1nc2ccccc2o1)N(C)C(=O)c1nc(C)ccc1-n1nccn1
(2) CC[C@@H](CNc1ncc(C(F)(F)F)cn1)N(C)C(=O)c1nc(C)ccc1-c1ncccn1 [Example 84, formic acid salt]
(3) CC[C@@H](CNc1ncc(C(F)(F)F)cn1)N(C)C(=O)c1nc(C)ccc1-n1cncn1 [Example 89, formic acid salt]
(4) CC[C@@H](CNc1nc2ccccc2o1)N(C)C(=O)c1cc(Cl)ccc1-n1nccn1
(5) CC[C@@H](CNc1ncc(C(F)(F)F)cn1)N(C)C(=O)c1nc(N(C)C)cc2ccccc12
**Query** Provide the items ranked by increasing IC50. Please, when replying, give the labels in the order that was requested.
**Result** 4, 2, 1, 5, 3
(4: 0.794 nM, 2: 2 nM, 1: 3.16 nM, 5: 5.01 nM, 3: 2000 nM)

----------
study target: UniProt O43614
assay info: Intracellular calcium measurements using division-arrested cells, OX2
Type: cell-based
reported conditions: agonist orexin B at 2×EC50, * = single experiment, otherwise average of at least two, read-out: pIC50 OX2 (converted)
measurement label: IC50 (µM)

Study these solved cases before continuing.
1. CC[C@@H](CNc1ccc(Cl)cn1)N(C)C(=O)c1cc(Cl)ccc1-n1nccn1 :: 1.26
2. CC[C@@H](CNc1cnc(C(F)(F)F)cn1)N(C)C(=O)c1cc(Cl)ccc1-n1nccn1 :: 2.51
3. CC[C@@H](CNc1ccc(C(F)(F)F)cn1)N(C)C(=O)c1nc(C)ccc1-n1nccn1 :: 2.51

(I) CC[C@@H](CNc1ccc(Cl)cn1)N(C)C(=O)c1ccccc1-c1ccccc1
(II) CC[C@@H](CNc1ccc(Cl)cn1)N(C)C(=O)c1cc(N(C)C)ccc1-n1nccn1
(III) CC[C@@H](CNc1ccc(Cl)cn1)N(C)C(=O)c1cc(Br)ccc1-n1nccn1
(IV) CC(C)[C@@H](CNc1ccc(Cl)cn1)N(C)C(=O)c1c(-c2ccccc2)[nH]c2ccccc12
**Query** // ranking: key=IC50, reverse=True Please, when replying, give the labels in the order that was requested.
**Result** II, III, I, IV
(II: 2.51 µM, III: 1.58 µM, I: 1 µM, IV: 0.501 µM)

----------
study target: hOX2R (Homo sapiens, UniProt O43614)
Sequence (O43614 whole entry): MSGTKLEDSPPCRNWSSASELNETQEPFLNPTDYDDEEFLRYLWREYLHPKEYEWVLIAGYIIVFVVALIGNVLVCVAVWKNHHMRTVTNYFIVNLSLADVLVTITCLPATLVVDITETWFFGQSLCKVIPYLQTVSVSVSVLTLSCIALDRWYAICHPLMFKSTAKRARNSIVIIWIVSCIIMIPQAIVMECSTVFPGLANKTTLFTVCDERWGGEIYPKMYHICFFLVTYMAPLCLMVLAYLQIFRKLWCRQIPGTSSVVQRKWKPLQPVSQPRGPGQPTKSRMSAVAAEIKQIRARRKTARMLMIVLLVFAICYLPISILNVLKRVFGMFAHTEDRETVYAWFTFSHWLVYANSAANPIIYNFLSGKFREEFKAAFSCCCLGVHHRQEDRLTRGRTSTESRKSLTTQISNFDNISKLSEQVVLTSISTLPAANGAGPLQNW
assay info: Intracellular calcium measurements using stable-replicating cells, Method A, OX2
Format: cell-based
reported conditions: orexin-A at 4×EC50, * = single experiment, read-out: pIC50 OX2 (converted)
measurement label: IC50 (nM)

1. CC[C@@H](CNc1nc2ccccc2o1)N(C)C(=O)c1cc(Cl)ccc1-n1nccn1 :: 1000

(A) CC[C@@H](CNc1ncc(C(F)(F)F)cn1)N(C)C(=O)c1nc(N(C)C)cc2ccccc12
(B) CC[C@@H](CNc1ncc(C(F)(F)F)cn1)N(C)C(=O)c1nccc2ccccc12
**Query** Looking at A and B , which one comes out lower in IC50 terms? State your choice using its label.
**Result** A

----------
study target: hOX1R (Homo sapiens)
assay info: Intracellular calcium measurements using division-arrested cells, OX1
Format: cell-based
reported conditions: agonist orexin A at 2×EC50, * = single experiment, otherwise average of at least two, read-out: pIC50 OX1 (converted)
measurement label: IC50 (nM)

1. CC[C@@H](CNc1cnc(C(F)(F)F)cn1)N(C)C(=O)c1cc(Cl)ccc1-n1nccn1 :: 15.8
2. CC[C@@H](CNc1ccc(Cl)cn1)N(C)C(=O)c1cc(C(F)(F)F)ccc1-n1nccn1 :: 200
3. Cc1cc(C)nc(NC[C@H](C(C)C)N(C)C(=O)c2ccccc2-c2ccccc2)n1 :: 79.4
4. CC(C)[C@@H](CNC(=O)Nc1ccccc1)N(C)C(=O)c1ccccc1-c1ccccc1 :: 126
5. CC[C@@H](CNc1cccc(C)n1)N(C)C(=O)c1cc(Cl)ccc1-n1nccn1 :: 251
6. CC(C)[C@@H](CNc1ccc(Cl)cn1)N(C)C(=O)c1c(-c2ccccc2)[nH]c2ccccc12 :: 158

(A) CC[C@@H](CNc1cnc(C(F)(F)F)cn1)N(C)C(=O)c1nc(C)ccc1-n1nccn1
(B) CC[C@@H](CNc1ccc(Cl)cn1)N(C)C(=O)c1cc(C(F)(F)F)cnc1-n1nccn1
(C) CC(C)[C@@H](CNc1ccc(Cl)cn1)N(C)C(=O)c1cn(C)c2ccccc12
(D) CC[C@@H](CNc1ccc(Cl)cn1)N(C)C(=O)c1cc(Cl)ccc1-n1nccn1
**Query** // ranking: key=IC50, reverse=True Please, when replying, give the labels in the order that was requested.
**Result** B, C, A, D

(A) Cc1ccc(-n2nccn2)c(C(=O)N(C)[C@H](CNc2ccc(Cl)cn2)C(C)C)c1
(B) Cc1cc(C)nc(OC[C@H](C(C)C)N(C)C(=O)c2ccccc2-c2ccccc2)n1
**Query** Looking at A and B , which one comes out lower in IC50 terms? State your choice using its label.
**Result** A
(A: 31.6 nM, B: 1580 nM)

(A) CC(C)[C@@H](CNc1nccc(-c2ccccc2)n1)N(C)C(=O)c1ccccc1-c1ccccc1
(B) CC[C@@H](CNc1ccc(Cl)cn1)N(C)C(=O)c1nc(C)ccc1-n1nccn1
**Query** Looking at A and B , which one comes out lower in IC50 terms? State your choice using its label.
**Result** B
(B: 7.94 nM, A: 79.4 nM)

(a) CC(C)[C@@H](CNC(=O)c1ccc(F)cc1)N(C)C(=O)c1ccccc1-c1ccccc1
(b) Cc1cc(C(=O)N(C)[C@H](CNc2ccc(Cl)cn2)C(C)C)c2ccccc2n1
(c) CC(C)[C@@H](COc1ccc(Cl)cn1)N(C)C(=O)c1ccccc1-c1ccccc1
**Query** Provide the items ranked by increasing IC50. Please, when replying, give the labels in the order that was requested.
**Result** a, c, b

----------
study target: hOX1R (Homo sapiens, UniProt O43613)
Sequence (O43613 1-425): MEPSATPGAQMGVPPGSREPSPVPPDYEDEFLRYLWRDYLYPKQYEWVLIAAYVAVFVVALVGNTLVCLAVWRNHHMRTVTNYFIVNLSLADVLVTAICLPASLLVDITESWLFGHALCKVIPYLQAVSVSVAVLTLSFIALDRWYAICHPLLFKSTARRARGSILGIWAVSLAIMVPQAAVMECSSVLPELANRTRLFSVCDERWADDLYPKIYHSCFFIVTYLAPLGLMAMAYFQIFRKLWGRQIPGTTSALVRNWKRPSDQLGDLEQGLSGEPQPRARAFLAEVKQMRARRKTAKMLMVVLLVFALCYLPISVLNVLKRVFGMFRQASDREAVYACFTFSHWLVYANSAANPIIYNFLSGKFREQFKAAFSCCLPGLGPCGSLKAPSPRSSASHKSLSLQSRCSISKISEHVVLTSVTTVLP
assay info: Intracellular calcium measurements using division-arrested cells, OX1
Type: cell-based
reported conditions: agonist orexin A at 2×EC50, * = single experiment, otherwise average of at least two, read-out: pIC50 OX1 (converted)
Method: Intracellular Calcium Measurements Using Division-arrested Cells (Table 1): Test compounds are prepared as 10 mM stock solutions in DMSO, then serially diluted in half log concentrations with DMSO followed by dilution with assay buffer (HBSS (Sigma-Aldrich, H8264) containing 20 mM HEPES (Sigma-Aldrich, H4034), 0.1% (w/v) bovine serum albumin and adjusted to pH 7.4) to a top final assay concentration of 10 μM. […]
measurement label: IC50 (nM)

1. CC(C)[C@@H](CNc1nc2ccccc2n1C)N(C)C(=O)c1ccccc1-c1ccccc1 :: 79.4
2. Cc1nc(-c2ccccc2)c(C(=O)N(C)[C@H](CNc2ccc(Cl)cn2)C(C)C)s1 :: 79.4
3. CC[C@@H](CNc1ccc(Cl)cn1)N(C)C(=O)c1cc(F)ccc1-n1nccn1 :: 79.4
